experiment: Plasma pharmacokinetics of AZD5363 after a single dose and multiple doses; format: in vivo, human; conditions: human, plasma, oral; single dose; 80 mg bid continuous cohort, n=3; median (range); read-out: t max
REPORTED_PROPERTY: Tmax (h)
Your answer should be a plain number; it is taken to be in h.

In: Report Tmax for `NC1(C(=O)N[C@@H](CCO)c2ccc(Cl)cc2)CCN(c2ncnc3[nH]ccc23)CC1` please.
Out: 2

###

assay: Plasma pharmacokinetics of AZD5363 after a single dose and multiple doses; format: in vivo, human; conditions: human, plasma, oral, 320 mg, multiple doses; 320 mg bid continuous, n=4; geometric mean (CV%); read-out: AUCss
REPORTED_PROPERTY: AUC
Answer with the value and then the unit.

In: Value lookup for AUC; key = `NC1(C(=O)N[C@@H](CCO)c2ccc(Cl)cc2)CCN(c2ncnc3[nH]ccc23)CC1`
Out: 5770 ng·h/mL

###

experiment: Plasma pharmacokinetics of AZD5363 after a single dose and multiple doses; assay type: in vivo, human; details: human, plasma, oral; single dose; 640 mg bid intermittent 2/5 cohort, n=6; geometric mean (CV%); read-out: V ss/F
REPORTED_PROPERTY: Vd/F

In: Given the molecule `NC1(C(=O)N[C@@H](CCO)c2ccc(Cl)cc2)CCN(c2ncnc3[nH]ccc23)CC1` , what is its reported Vd/F?
Out: 587 L

###

test: Plasma pharmacokinetics of AZD5363 after a single dose and multiple doses; assay type: in vivo, human; conditions: human, plasma, oral; single dose; 640 mg bid intermittent 2/5 cohort, n=6; median (range); read-out: t max
REPORTED_PROPERTY: Tmax (h)
Write the answer as a number in h, unit excluded.

In: Which Tmax value is on record for `NC1(C(=O)N[C@@H](CCO)c2ccc(Cl)cc2)CCN(c2ncnc3[nH]ccc23)CC1` ?
Out: 2.02
